# credit: patent US12209079B2

- system_name: rhTDO (recombinant human TDO) (Homo sapiens, UniProt P48775)
- Sequence (P48775 whole entry): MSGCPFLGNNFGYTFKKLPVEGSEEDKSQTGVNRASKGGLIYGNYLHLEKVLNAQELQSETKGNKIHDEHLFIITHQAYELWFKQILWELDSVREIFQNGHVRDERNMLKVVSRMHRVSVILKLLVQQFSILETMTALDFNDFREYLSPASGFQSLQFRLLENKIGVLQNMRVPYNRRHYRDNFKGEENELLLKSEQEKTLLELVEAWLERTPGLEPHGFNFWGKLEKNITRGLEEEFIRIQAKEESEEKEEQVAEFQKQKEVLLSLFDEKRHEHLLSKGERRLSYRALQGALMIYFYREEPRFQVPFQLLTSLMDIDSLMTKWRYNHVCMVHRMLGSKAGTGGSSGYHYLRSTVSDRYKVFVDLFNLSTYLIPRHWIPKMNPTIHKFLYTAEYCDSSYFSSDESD
- test_name: Enzyme assay using rhTDO (rate of kynurenine production)
- Assay type: biochemical
- condition_set: 2 h; final concentration of the compound 10 μM; rate relative to reaction without compound; read-out: rhTDO-mediated kynurenine production
Counter-ions that a name gives are not always drawn.
Measured remaining activity at 10 µM, listed per entry for reference.
property_name: remaining activity at 10 µM (%)

>>> reported("FC(F)(F)c1ccc(CN2CN=C(SCc3ccccc3CSC3=NCN(Cc4ccc(C(F)(F)F)cc4)CN3)NC2)cc1 [Compound 42]")
41
>>> reported("N/C(=N\\c1ccc(Br)cc1)SCc1ccc(Br)cc1CS/C(N)=N/c1ccc(Br)cc1 [Compound 49]")
15
>>> reported("CNC(=O)c1ccc(C#N)cc1CSC(=N)N [Compound 77, hydrobromide]")
101
>>> reported("N#Cc1ccc(CNC(=O)c2ccccc2C[Se]C(=N)N)cc1 [Compound 104, hydrobromide]")
81
>>> reported("Fc1ccc(CSC2=NCN(CCc3ccc(Cl)c(Cl)c3)CN2)c(CSC2=NCN(CCc3ccc(Cl)c(Cl)c3)CN2)c1 [Compound 133]")
10
>>> reported("N#Cc1ccc(CNC(=O)c2cccc(Br)c2CSC(=N)N)cc1 [Compound 111, hydrobromide]")
122
>>> reported("N/C(=N\\c1ccc(F)c(Cl)c1)SCc1ccc(F)cc1CS/C(N)=N/c1ccc(F)c(Cl)c1 [Compound 129, dihydrobromide]")
8

----------
- system_name: rhTDO (recombinant human TDO) (Homo sapiens)
- test_name: Enzyme assay using rhTDO (rate of kynurenine production)
- Format: biochemical
- condition_set: 2 h; final concentration of the compound 10 μM; rate relative to reaction without compound; read-out: rhTDO-mediated kynurenine production
Counter-ions that a name gives are not always drawn.
Measured remaining activity at 10 µM values are reported for all entries that follow.
property_name: remaining activity at 10 µM (%)

>>> reported("N=C(N)SCc1cc(Br)ccc1C(=O)NCc1ccc(Cl)cc1 [Compound 82, hydrobromide]")
27
>>> reported("N=C(N)SCc1cccnc1CSC(=N)N [Compound 34, dihydrobromide]")
27
>>> reported("N=C(N)SCc1nc2ccccc2nc1CSC(=N)N [Compound 5, dihydrobromide]")
84
>>> reported("COc1cccc(CCN2CN=C(SCc3cc(Cl)c(Cl)cc3CSC3=NCN(CCc4cccc(OC)c4)CN3)NC2)c1 [Compound 153]")
6

----------
Form field: remaining activity at 10 µM (one value per entry).
- system_name: rhIDO (recombinant human IDO) (Homo sapiens)
- test_name: Enzyme assay using rhIDO (rate of kynurenine production)
- Type: biochemical
- condition_set: 2 h; final concentration of the compound 10 μM; rate relative to reaction without compound; read-out: rhIDO-mediated kynurenine production
Where a name gives a salt, the structure may show the parent alone.
property_name: remaining activity at 10 µM

>>> reported("Cc1ccc(/N=C(\\N)SCc2cc(Cl)c(Cl)cc2CS/C(N)=N/c2ccc(C)cc2)cc1 [Compound 138, dihydrobromide]")
"-1%"
>>> reported("N/C(=N\\c1ccc(F)cc1)SCc1ccc(F)cc1CS/C(N)=N/c1ccc(F)cc1 [Compound 127, dihydrobromide]")
"0%"
>>> reported("N=C(N)SCc1sc2ccccc2c1CSC(=N)N [Compound 151, dihydrobromide]")
"13%"
>>> reported("N/C(=N\\c1ccc(F)cc1F)SCc1ccc(F)cc1CS/C(N)=N/c1ccc(F)cc1F [Compound 130, dihydrobromide]")
"1%"
>>> reported("N#Cc1ccc(CNC(=O)c2ccc(Br)cc2C[Se]C(=N)N)cc1 [Compound 113, hydrobromide]")
"92%"
>>> reported("N=C(N)[Se]Cc1ccc(Cl)cc1C[Se]C(=N)N [Compound 109, dihydrobromide]")
"61%"
>>> reported("Brc1ccc(CSC2=NCN(CC3CCCCC3)CN2)c(CSC2=NCN(CC3CCCCC3)CN2)c1")
"14%"

----------
- system_name: rhIDO (recombinant human IDO) (Homo sapiens, UniProt P14902)
- Sequence (P14902 whole entry): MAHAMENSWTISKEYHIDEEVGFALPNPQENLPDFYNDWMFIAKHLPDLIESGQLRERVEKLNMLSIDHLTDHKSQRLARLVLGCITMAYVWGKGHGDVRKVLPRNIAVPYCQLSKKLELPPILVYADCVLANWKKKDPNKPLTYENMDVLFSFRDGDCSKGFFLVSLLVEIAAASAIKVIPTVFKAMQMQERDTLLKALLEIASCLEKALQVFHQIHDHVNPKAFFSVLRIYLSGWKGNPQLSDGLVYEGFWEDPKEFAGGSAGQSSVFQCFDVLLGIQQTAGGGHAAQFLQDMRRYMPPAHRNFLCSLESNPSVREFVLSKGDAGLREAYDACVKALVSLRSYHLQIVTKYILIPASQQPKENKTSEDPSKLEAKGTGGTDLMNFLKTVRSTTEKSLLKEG
- test_name: Enzyme assay using rhIDO (rate of kynurenine production)
- Format: biochemical
- condition_set: 2 h; final concentration of the compound 10 μM; rate relative to reaction without compound; read-out: rhIDO-mediated kynurenine production
Counter-ions that a name gives are not always drawn.
Sorting guide: entries reporting remaining activity at 10 µM beneath 40% go in the y pile, the rest go in the n pile.

>>> category("N=C(N)[Se]Cc1nc2ccccc2nc1C[Se]C(=N)N [Compound 112, dihydrobromide]")
"n"
>>> category("Clc1ccccc1CCN1CN=C(SCc2ccc(Br)cc2CSC2=NCN(CCc3ccccc3Cl)CN2)NC1")
"y"
>>> category("Brc1cccc(CCN2CN=C(SCc3ccccc3CSC3=NCN(CCc4cccc(Br)c4)CN3)NC2)c1")
"n"
>>> category("Br.Br.N=C(N)SCc1ccc(F)cc1CSC(=N)N [Compound 2, dihydrobromide]")
"y"
>>> category("N=C(N)SCc1c(F)c(F)c(F)c(F)c1CSC(=N)N [Compound 6, dihydrobromide]")
"y"
>>> category("CNC(=N)SCc1ccccc1CSC(=N)NC [Compound 11, dihydrochloride]")
"n"
>>> category("Clc1ccc(CCN2CN=C(SCc3ccccc3CSC3=NCN(CCc4ccc(Cl)cc4)CN3)NC2)cc1")
"y"
>>> category("Fc1ccc(CN2CN=C(SCc3ccccc3CSC3=NCN(Cc4ccc(F)c(F)c4)CN3)NC2)cc1F")
"n"
>>> category("N=C(N)[Se]Cc1ccccc1C[Se]C(=N)N [Compound 108, dihydrobromide]")
"n"
>>> category("N=C(N)SCc1cccc(F)c1CSC(=N)N [Compound 13, dihydrobromide]")
"y"
>>> category("COc1ccc(/N=C(\\N)SCc2cc(Cl)c(Cl)cc2CS/C(N)=N/c2ccc(OC)cc2)cc1 [Compound 124, dihydrobromide]")
"y"
>>> category("CNC(=O)Cc1ccccc1CS/C(N)=N/c1ccc(F)c(Cl)c1 [Compound 80, hydrobromide]")
"n"
>>> category("FC(F)(F)c1ccc(CCN2CN=C(SCc3ccccc3CSC3=NCN(CCc4ccc(C(F)(F)F)cc4)CN3)NC2)cc1")
"n"
>>> category("Brc1ccc(CSC2=NCN(CCC3CCCCC3)CN2)c(CSC2=NCN(CCC3CCCCC3)CN2)c1")
"y"
>>> category("Br.Br.N=C(N)SCc1cscc1CSC(=N)N [Compound 15, dihydrobromide]")
"y"
>>> category("N/C(=N\\c1ccc(F)c(Cl)c1)SCc1cc(Br)ccc1C(=O)NCc1ccc(Cl)cc1 [Compound 83, hydrobromide]")
"n"
>>> category("N=C(N)SCc1cc(Br)ccc1C(=O)NCc1ccc(C(F)(F)F)cc1 [Compound 114, hydrobromide]")
"n"
>>> category("N=C(N)SCc1ccccc1CC(=O)NCCc1ccccc1 [Compound 64, hydrobromide]")
"n"
>>> category("Clc1ccc(CN2CN=C(SCc3ccc(Br)cc3CSC3=NCN(Cc4ccc(Cl)c(Cl)c4)CN3)NC2)cc1Cl")
"y"
>>> category("COc1ccc(CCN2CN=C(SCc3ccc(F)cc3CSC3=NCN(CCc4ccc(OC)cc4)CN3)NC2)cc1")
"y"
>>> category("N#Cc1ccc(CNC(=O)c2ncccc2CS/C(N)=N/c2ccc(F)c(Cl)c2)cc1 [Compound 101, hydrobromide]")
"n"
>>> category("N=C(N)SCc1ccccc1CC(=O)NCCc1ccccc1Cl [Compound 66, hydrobromide]")
"n"
>>> category("Cc1ccc(CNC(=O)c2ccc(Br)cc2CS/C(N)=N/c2ccc(F)c(Cl)c2)cc1 [Compound 91, hydrobromide]")
"n"
>>> category("COc1ccc(CN2CN=C(SCc3ccccc3CSC3=NCN(Cc4ccc(OC)cc4)CN3)NC2)cc1")
"y"
>>> category("Clc1ccc(CCN2CN=C(SCc3ccc(Br)cc3CSC3=NCN(CCc4ccc(Cl)c(Cl)c4)CN3)NC2)cc1Cl")
"y"
>>> category("COC(=O)c1ccccc1CSC(=N)N [Compound 55, hydrochloride]")
"n"
>>> category("FC(F)(F)c1ccc(CSC2=NCN(CCc3ccccc3Cl)CN2)c(CSC2=NCN(CCc3ccccc3Cl)CN2)c1")
"n"
>>> category("N=C(N)SCc1cc(Br)ccc1C(=O)NCCc1ccc(Cl)cc1 [Compound 78, hydrobromide]")
"n"
>>> category("Cc1ccc(CCN2CN=C(SCc3ccccc3CSC3=NCN(CCc4ccc(C)c(C)c4)CN3)NC2)cc1C")
"y"
>>> category("FC(F)(F)c1ccc(CN2CN=C(SCc3ccccc3CSC3=NCN(Cc4ccc(C(F)(F)F)cc4)CN3)NC2)cc1")
"n"

----------
- system_name: rhTDO (recombinant human TDO) (Homo sapiens, UniProt P48775)
- test_name: Enzyme assay using rhTDO (rate of kynurenine production)
- Format: biochemical
- condition_set: 2 h; final concentration of the compound 10 μM; rate relative to reaction without compound; read-out: rhTDO-mediated kynurenine production
Where a name gives a salt, the structure may show the parent alone.
# if measured remaining activity at 10 µM < 30%: rule met  # else: rule not met

>>> category("N=C(N)SCc1ccccc1CC(=O)NCCc1ccc(Cl)cc1 [Compound 68, hydrobromide]")
"rule not met"
>>> category("Br.Br.N=C(N)SCc1ccc(Br)cc1CSC(=N)N [Compound 10, dihydrobromide]")
"rule met"
>>> category("N/C(=N\\c1ccc(F)cc1)SCc1cc(Cl)c(Cl)cc1CS/C(N)=N/c1ccc(F)cc1 [Compound 137, dihydrobromide]")
"rule met"
>>> category("N=C(N)SCc1cc(Br)ccc1C(=O)NCC1CC1 [Compound 93, hydrobromide]")
"rule not met"
>>> category("FC(F)(F)c1ccc(CSC2=NCN(CCc3ccccc3Cl)CN2)c(CSC2=NCN(CCc3ccccc3Cl)CN2)c1 [Compound 48]")
"rule not met"
>>> category("Cc1ccc(CNC(=O)c2ccc(Br)cc2CS/C(N)=N/c2ccc(F)c(Cl)c2)cc1 [Compound 91, hydrobromide]")
"rule not met"
>>> category("Clc1ccc(CCN2CN=C(SCc3ccccc3CSC3=NCN(CCc4ccc(Cl)c(Cl)c4)CN3)NC2)cc1Cl [Compound 22]")
"rule met"
